From: PubChem BioAssay (NCI)

System: MDA-MB-231 breast
Test: NCI-60 one-dose screen, 48 h
Details: 10 µM unless noted
This is part of a sample that, as a whole, favours compounds with a hit. Of some 83,000 tested, about 20% had one in any assay. The source made the active and inactive calls. Rule for the calls: active = growth percent below 10; inactive = the rest.
Possible outcomes: active, inactive

COMPOUND	CLASS_NAME
Clc1cccc(-c2ccc(OCCCN3CCN(c4ccncc4)CC3)cc2)c1	active
O=C(CN1C(=O)/C(=C/c2ccccc2F)SC1=S)N1CCOCC1	inactive
COc1ccc(C(=O)/C=C/c2cccc(Cl)c2)cc1S(N)(=O)=O	active
C#CCOc1cc(N(CC)CC)ccc1C(C(=O)NC(C)(C)C)N(C(=O)C1CCc2cc(F)ccc2O1)c1ccc(Br)cc1 (configuration not stated)	inactive
COc1cccc(-c2nc(Nc3ccc(S(N)(=O)=O)cc3)c3ccccc3n2)c1	inactive
S=C(NCCc1ccccc1)Nc1ccc(OCc2nc3ccccc3[nH]2)cc1	inactive
CC1CN(c2oc(-c3ccc([N+](=O)[O-])cc3)nc2C#N)CC(C)O1 (configuration not stated)	inactive
O=C(COc1ccc(NC(=O)Nc2ccc(Cl)c(Cl)c2)cc1)N=Nc1c(O)[nH]c2ccccc12	active
Cn1cc(-c2cc3nc(-c4c[nH]c5ccc(Br)cc45)cc(N)n3n2)c2ccccc21	active
COc1cc2oc(-c3cccc(C(=O)Nc4ccc(Cl)cc4)c3)cc(=O)c2c(OCCNC(=O)[C@H](CCC(=O)OC(C)(C)C)NC(=O)OC(C)(C)C)c1OC	inactive
O=C1Nc2ccc([N+](=O)[O-])cc2C1=Nc1ccccc1	inactive
COc1ccc(/C=N/NC(=O)Cn2nc(Cc3ccc(OC)cc3)c3onc(C)c3c2=O)cc1	inactive
Cc1cc2c(cc1Cl)C(=O)/C(=C/c1ccccc1)O2	active
CCCCNC(=S)Nc1ccc(OCc2nc3ccccc3[nH]2)cc1	inactive
COc1ccc(Cc2nn(CC(=O)N/N=C/c3ccc(F)cc3)c(=O)c3c(C)noc23)cc1	inactive
Cc1ccc(C(=O)NN2C(=O)/C(=C/C=C/c3ccc([N+](=O)[O-])o3)SC2=S)cc1	active
COc1ccc(C(=O)/C=C/c2ccc(OC)c(OCc3ccccc3)c2)cc1OC	inactive
CN1CCN(c2ccc3c(c2)nc(NNC(=O)c2cnccn2)c2cccn23)CC1	active
COc1cc2oc(-c3cccc(C(=O)Nc4ccc(Cl)cc4)c3)cc(=O)c2c(OCCNC(=O)[C@H](CO)NC(=O)OC(C)(C)C)c1OC	active
CC1[C@H]2[C@H](C[C@H]3[C@@H]4CC=C5c6sc(Nc7ccccc7F)nc6CC[C@]5(C)[C@H]4CC[C@@]32C)O[C@]12CC[C@@H](C)CO2 (some centres not stated)	active
N=C1N=C(SCc2nc3ccccc3[nH]2)NC(=O)/C1=C/c1ccc(Cl)cc1	inactive
COc1cc(C2CC(c3cc(OC)c(OC)c(OC)c3)=NN2C(C)=O)ccc1OCc1ccccc1 (configuration not stated)	inactive
O=C1NC(=O)c2c1c1c3cc(Br)ccc3[nH]c1c1oc3ccc(F)cc3c21	active
CC(=O)OCC1OC(OC2C(COC(C)=O)OC(n3cc(COc4ccc5ccc(=O)oc5c4)nn3)C(OC(C)=O)C2OC(C)=O)C(OC(C)=O)C(OC(C)=O)C1OC(C)=O (configuration not stated)	inactive
Cc1cnc(C(=O)NNc2nc3cc(F)ccc3n3c(C(=O)N4CC5CC(C4)N5)ccc23)cn1	inactive
COc1cc2oc(-c3cccc(C(=O)Nc4ccc(Cl)cc4)c3)cc(=O)c2c(OCC(=O)N[C@@H](Cc2ccccc2)C(=O)O)c1OC	inactive
CC(C)CSc1nc(NCCc2c[nH]c3ccccc23)c(C#N)c(-c2ccc(Cl)cc2)n1	inactive
O=C(C1=CNC(=S)NC1c1ccc(O)cc1)c1cc2ccccc2oc1=O (configuration not stated)	inactive
CCN1C(=O)/C(=N\N=C(/C)c2ccc3c(c2)Nc2ccccc2S3)c2cc(Cl)ccc21	inactive
O=C1C(=Nc2ccc(F)c(Cl)c2)c2cccc3cccc1c23	inactive
C#CCOc1ccc(/C=N/Nc2nc(-c3cc4cc(OC)ccc4oc3=O)cs2)cc1OC	inactive
S=C(Nc1ccccc1)Nc1ccc(OCc2nc3ccccc3[nH]2)cc1	inactive
C/C(=N\N=C\c1cc([N+](=O)[O-])ccc1Cl)c1ccc2c(c1)Nc1ccccc1S2	inactive
COc1ccc(/C=C/c2nc3ccccc3nc2Nc2cccc(C)c2)cc1	inactive
NC(=S)Nc1cccc(NC(N)=S)c1	inactive
OCC1(CCCc2ccccc2)CCCN(c2nccc3ccccc23)C1 (configuration not stated)	inactive
CC(C)(C)OC(=O)/C=C/c1cccc2c1C(=O)NC(C)(c1cc3cc(Cl)ccc3oc1=O)N2 (configuration not stated)	inactive
